This collection of values is drawn from patent US20240208992A1.

Reported pEC50 by item:
TARGET SYSTEM: human F508del-CFTR (Homo sapiens, UniProt P13569, DEL508-508)
Sequence (P13569 with tags, fused parts or gaps DEL508-508): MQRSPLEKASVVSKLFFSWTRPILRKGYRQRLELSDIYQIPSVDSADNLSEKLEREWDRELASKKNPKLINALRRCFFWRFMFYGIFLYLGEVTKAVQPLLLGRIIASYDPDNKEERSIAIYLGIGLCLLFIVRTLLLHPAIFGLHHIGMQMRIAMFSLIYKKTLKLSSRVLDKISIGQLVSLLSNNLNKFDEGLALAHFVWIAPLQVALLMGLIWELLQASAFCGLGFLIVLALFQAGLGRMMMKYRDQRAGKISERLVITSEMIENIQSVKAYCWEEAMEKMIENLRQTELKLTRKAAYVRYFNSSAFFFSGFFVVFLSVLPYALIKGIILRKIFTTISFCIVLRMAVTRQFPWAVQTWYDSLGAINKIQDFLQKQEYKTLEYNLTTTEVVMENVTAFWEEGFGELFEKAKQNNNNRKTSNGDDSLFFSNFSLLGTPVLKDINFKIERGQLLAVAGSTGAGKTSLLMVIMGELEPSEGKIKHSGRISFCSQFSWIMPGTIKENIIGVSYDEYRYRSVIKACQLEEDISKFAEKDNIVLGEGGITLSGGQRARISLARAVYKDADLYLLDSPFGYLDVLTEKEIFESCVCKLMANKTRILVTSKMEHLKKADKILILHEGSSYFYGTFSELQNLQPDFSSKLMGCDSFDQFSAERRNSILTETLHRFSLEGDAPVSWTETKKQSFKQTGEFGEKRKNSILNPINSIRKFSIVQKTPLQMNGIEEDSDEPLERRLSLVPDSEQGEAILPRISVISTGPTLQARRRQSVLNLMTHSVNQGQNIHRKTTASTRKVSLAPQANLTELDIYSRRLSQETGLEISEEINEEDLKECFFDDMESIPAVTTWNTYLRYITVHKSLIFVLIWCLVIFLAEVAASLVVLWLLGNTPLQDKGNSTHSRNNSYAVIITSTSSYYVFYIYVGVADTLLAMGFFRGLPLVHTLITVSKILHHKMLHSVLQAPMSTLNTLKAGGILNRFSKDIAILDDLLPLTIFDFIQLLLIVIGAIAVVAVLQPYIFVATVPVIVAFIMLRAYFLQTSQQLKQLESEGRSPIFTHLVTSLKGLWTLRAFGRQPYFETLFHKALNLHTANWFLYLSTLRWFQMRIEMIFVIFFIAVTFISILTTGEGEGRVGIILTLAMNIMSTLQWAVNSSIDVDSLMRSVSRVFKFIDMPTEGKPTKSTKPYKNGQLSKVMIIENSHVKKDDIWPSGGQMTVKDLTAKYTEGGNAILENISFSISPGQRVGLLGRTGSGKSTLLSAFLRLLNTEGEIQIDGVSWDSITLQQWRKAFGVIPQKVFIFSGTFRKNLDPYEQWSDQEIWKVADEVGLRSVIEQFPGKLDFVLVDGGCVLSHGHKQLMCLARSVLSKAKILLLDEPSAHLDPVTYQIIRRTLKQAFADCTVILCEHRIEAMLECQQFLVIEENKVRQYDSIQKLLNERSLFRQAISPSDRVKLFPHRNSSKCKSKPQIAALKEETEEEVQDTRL
MEASUREMENT NOTES: F508del-CFTR cell surface expression (corrector activity), DiscoveRx ß-galactosidase complementation chemiluminescence assay in recombinant U2OS cell line
RECORDED CONDITIONS: EC50, F508del-CFTR cell surface expression, U2OS cells, 16h compound incubation; geomean values
Formally, pEC50 is defined as -log10 of the concentration c, with c in mol/L.

The following compounds have reported results that may help.
- COMPOUND: "Cc1cc(CCNC(=O)[C@@H]2CC(=O)N(C)[C@@H](CC(C)C)C(=O)N(C)[C@@H](COC(C)(C)C)C(=O)N[C@H](Cc3ccccc3)COc3ccc4ccccc4c3C(=O)N2)on1 (racemic)"
  pEC50: 6.91
- COMPOUND: "Cc1cc(CCNC(=O)[C@@H]2CC(=O)N(C)[C@@H](CC(C)C)C(=O)N(CC[C@@H]3CCCCO3)CC(=O)N[C@H](Cc3csc4ccccc34)COc3cnc4ccccc4c3C(=O)N2)on1"
  pEC50: 6.50

Query: Sample Cc1cc(CCNC(=O)[C@@H]2CC(=O)N(C)[C@@H](CC(C)C)C(=O)N3CCNC[C@@H]3C(=O)N[C@H](Cc3ccccc3)COc3ccc4ccccc4c3C(=O)N2)on1 — what was its pEC50?
Result: 5.86

====

TARGET SYSTEM: human F508del-CFTR (Homo sapiens, UniProt P13569, DEL508-508)
MEASUREMENT NOTES: F508del-CFTR cell surface expression (corrector activity), DiscoveRx ß-galactosidase complementation chemiluminescence assay in recombinant U2OS cell line;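 note: U2OS cells co-expressing ProLink-tagged F508del-CFTR and a membrane-anchored enzyme acceptor, where more surface CFTR restores β-galactosidase activity measured by chemiluminescence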
RECORDED CONDITIONS: U2OS, in relation to Emax of corrector lumacaftor (=100%); arithmetic mean values
ATTRIBUTE MEASURED: Emax (%)
Express it in %; write the number only.

Query: // lookup Emax | system=human F508del-CFTR (Homo sapiens, UniProt P13569, DEL508-508) | key= CC(C)C[C@H]1C(=O)N(CCCc2ccccc2)CC(=O)N[C@H](Cc2ccccc2)COc2ccc3ccccc3c2C(=O)N[C@H](C(=O)NCCc2ccc3c(c2)OCO3)CC(=O)N1C
Result: 253

Query: // lookup Emax | system=human F508del-CFTR (Homo sapiens, UniProt P13569, DEL508-508) | key= CCOC(=O)N1CCN2C(=O)[C@H](CC(C)C)N(C)C(=O)C[C@@H](C(=O)NCCc3cccc(OC)c3)NC(=O)c3c(ccc4ccccc34)OC[C@@H](Cc3ccccc3)NC(=O)[C@H]2C1
Result: 270

Query: // lookup Emax | system=human F508del-CFTR (Homo sapiens, UniProt P13569, DEL508-508) | key= COc1cccc(CCNC(=O)[C@@H]2CC(=O)N(C)[C@@H](CC(C)C)C(=O)N3CCN(c4ccccc4)C[C@@H]3C(=O)N[C@H](Cc3ccccc3)COc3ccc4nc(C)oc4c3C(=O)N2)c1
Result: 358

Query: // lookup Emax | system=human F508del-CFTR (Homo sapiens, UniProt P13569, DEL508-508) | key= COc1cccc(CCNC(=O)[C@@H]2CC(=O)N(C)[C@@H](CC(C)C)C(=O)N3CC[C@@H](C3)C(=O)N[C@H](Cc3ccccc3)COc3ccc(OC)cc3C(=O)N2)c1
Result: 156

Query: // lookup Emax | system=human F508del-CFTR (Homo sapiens, UniProt P13569, DEL508-508) | key= COCCC(=O)N1CCN2C(=O)[C@H](CC(C)C)N(C)C(=O)C[C@@H](C(=O)NCCc3cccc(OC)c3)NC(=O)c3c(ccc4ccccc34)OC[C@@H](Cc3ccccc3)NC(=O)[C@H]2C1
Result: 200
